measured_on: p32 protein (Homo sapiens)
Construct: 6xHis; host or cells: Rosetta-gami-2 cells (Novagen); an E. coli strain by own knowledge
experiment: Fluorescence polarization assay: displacement of FAM-TT1 from p32 (HTS, dose response, unlabeled peptide competition)
Format: binding
condition_notes: high-throughput screen hits, inhibition of TT1-p32 interaction; library compounds 25 μM (Table 1); b410 says 100 μM
Protocol: Fluorescence polarization (FP)-based assay was used for solution-based screening of compound libraries for p32 binding compounds. […] In FP assay, peptide conjugated with a fluorescent label (fluorescein-AM, FAM) is excited with polarized light. […] 6×-His-Tagged p^32 was expressed in Rosetta-gami-2 cells (Novagen). The protein was purified by IMAC using HIS-select resin (Sigma) with an imidizole gradient from 20-300 mM and eluted fractions were analyzed on analytical SDS-PAGE. […]
assay_endpoint: inhibition at 25 µM (%)

Take a look at these entries with their results.
Lookup: Quick one: inhibition at 25 µM of Cc1ccc(-c2cnc(N)c(N3CCC(O)C3)n2)c(-n2cccn2)c1 (stereo not shown) ?
Found: 30.8

Lookup: What value of measured inhibition at 25 µM is listed for CC1(C)CN=C(NCCNC2=NCC(C)(C)S2)S1 ?
Found: 40.5

A. CN1CCc2onc(-c3ccc(F)c(F)c3)c2C1
B. Cc1c(O)ccc2c(C(F)(F)F)cc(=O)oc12
Lookup: Returns: the argument ( A or B ) having the larger inhibition at 25 µM. Kindly give the label for the entry you pick.
Found: B

###

measured_on: p32 protein (Homo sapiens)
Construct: 6xHis; host or cells: Rosetta-gami-2 cells (Novagen); an E. coli strain by own knowledge
experiment: TT1 phage binding inhibition assay (ELISA-type)
condition_notes: 100 μM compound
Experimental: The binding of individual phage to p32 was verified using ELISA-type of phage binding assay. […] The reaction was stopped by adding 50 μL of 1M H2SO4, and the plate was read at 492 nm (Varioskan Flash, Thermo Scientific, Waltham, Mass., USA). […]
assay_endpoint: inhibition at 100 µM (%)

I. CN1CCc2onc(-c3ccc(F)c(F)c3)c2C1 [Compound 91984046]
II. CC1(C)CN=C(NCCNC2=NCC(C)(C)S2)S1 [Compound 7933989]
III. Cc1cnccc1NCCN [Compound 4014008]
Lookup: From the items above, give an ordering by inhibition at 100 µM that starts at the lowest reported number. Returns: the labels listed in the requested order.
Found: I, III, II

###

measured_on: p32 protein (Homo sapiens, UniProt Q07021)
Construct: 6xHis; host or cells: Rosetta-gami-2 cells (Novagen); an E. coli strain by own knowledge
experiment: Fluorescence polarization assay: displacement of FAM-TT1 from p32 (HTS, dose response, unlabeled peptide competition)
Assay type: binding
condition_notes: highest concentration used, 100 μM; read-out: inhibition of FAM-TT1 binding to p32 in FP assay
assay_endpoint: inhibition at 100 µM (%)

Lookup: Looking for the measured inhibition at 100 µM of CC1(C)CN=C(NCCNC2=NCC(C)(C)S2)S1 , can you help?
Found: 80

Lookup: # input compound: Cc1cnccc1NCCN ; wanted: its inhibition at 100 µM
Found: 75

###

measured_on: p32 protein (Homo sapiens, UniProt Q07021)
Construct: 6xHis; host or cells: Rosetta-gami-2 cells (Novagen); an E. coli strain by own knowledge
experiment: Fluorescence polarization assay: displacement of FAM-TT1 from p32 (HTS, dose response, unlabeled peptide competition)
Type: binding
condition_notes: high-throughput screen hits, inhibition of TT1-p32 interaction; library compounds 25 μM (Table 1); b410 says 100 μM
assay_endpoint: inhibition at 25 µM (%)

Lookup: Value lookup for inhibition at 25 µM; key = Nc1nccc(N2CCC(C3CCN(Cc4cccnc4)CC3)C2)n1 (stereo not drawn) [Compound 54778828]
Found: 29.4

1. Cc1nc2nc3c(cn2n1)C(=O)CC(c1cccs1)C3 (stereo not drawn) [Compound 9132086]
2. Cc1cnccc1NCCN [Compound 4014008]
Lookup: Lab note: check whether 1 or 2 has the lower measured inhibition at 25 µM. Refer to your chosen entry by its label in the reply.
Found: 1

###

Overview of reported inhibition at 100 µM across a group of molecules:
measured_on: p32 protein (Homo sapiens)
Construct: 6xHis; host or cells: Rosetta-gami-2 cells (Novagen); an E. coli strain by own knowledge
Sequence (Q07021 74-282): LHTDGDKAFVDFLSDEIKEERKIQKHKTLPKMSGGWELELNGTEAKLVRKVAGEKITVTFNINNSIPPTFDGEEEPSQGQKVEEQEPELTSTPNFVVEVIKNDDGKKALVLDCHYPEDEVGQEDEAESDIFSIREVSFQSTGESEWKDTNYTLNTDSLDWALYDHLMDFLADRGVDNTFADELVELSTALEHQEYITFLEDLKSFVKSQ
experiment: Fluorescence polarization assay: displacement of FAM-TT1 from p32 (HTS, dose response, unlabeled peptide competition)
Assay type: binding
condition_notes: highest concentration used, 100 μM; read-out: inhibition of FAM-TT1 binding to p32 in FP assay

Lookup: inhibition at 100 µM of Cc1ccc(-c2cnc(N)c(N3CCC(O)C3)n2)c(-n2cccn2)c1 (stereo not drawn) on p32 protein (Homo sapiens)?
Found: 65 to 75%

Lookup: // map CN1CCc2onc(-c3ccc(F)c(F)c3)c2C1 to recorded inhibition at 100 µM (system: p32 protein (Homo sapiens))
Found: 65 to 75%

Lookup: I'm curious: which inhibition at 100 µM was measured for Cc1nc2nc3c(cn2n1)C(=O)CC(c1cccs1)C3 (stereo not drawn) tested on p32 protein (Homo sapiens)?
Found: 65 to 75%
